Data provenance: ChEMBL document CHEMBL4049455

# test.target: B-cell lymphoma 6 protein (Homo sapiens, UniProt P41182)
# experiment: Binding affinity to wild-type human biotinylated Avi-tagged BCL6 BTB domain (5 to 129 amino acid residues) expressed in Escherichia coli BL21 (DE3) using 1 % DMSO by SPR analysis
pKd: −log10 of the molar value.
quantity.measured: pKd

INSERT INTO assay_data (substance, measured) VALUES
  ('Ac-RSEIISTAPSSWVVPPK-OH', 5.12);

---

# test.target: B-cell lymphoma 6 protein (Homo sapiens, UniProt P41182)
# experiment: Binding affinity to captured wild-type human biotinylated Avi-tagged BCL6 BTB domain (5 to 129 amino acid residues) expressed in Escherichia coli BL21 (DE3) by SPR analysis
quantity.measured: Kd

INSERT INTO assay_data (substance, test_target, quantity_measured, measured) VALUES
  ('Ac-RSEIISTAPSSWVVPPK-OH', 'B-cell lymphoma 6 protein (Homo sapiens, UniProt P41182)', 'Kd', '17 µM');

---

# test.target: B-cell lymphoma 6 protein (Homo sapiens, UniProt P41182)
# experiment: Binding affinity to wild-type human biotinylated Avi-tagged BCL6 BTB domain (5 to 129 amino acid residues) expressed in Escherichia coli BL21 (DE3) using 3 % DMSO by SPR analysis
pKd: −log10 of the molar value.
quantity.measured: pKd

INSERT INTO measurements (substance, measured) VALUES
  ('Ac-RSEIISTAPSSWVVPPK-OH', 5.03);
